Attribution: ChEMBL document CHEMBL1955797

Target: Cytochrome P450 2C9 (Homo sapiens, UniProt P11712)
Sequence (P11712 whole entry): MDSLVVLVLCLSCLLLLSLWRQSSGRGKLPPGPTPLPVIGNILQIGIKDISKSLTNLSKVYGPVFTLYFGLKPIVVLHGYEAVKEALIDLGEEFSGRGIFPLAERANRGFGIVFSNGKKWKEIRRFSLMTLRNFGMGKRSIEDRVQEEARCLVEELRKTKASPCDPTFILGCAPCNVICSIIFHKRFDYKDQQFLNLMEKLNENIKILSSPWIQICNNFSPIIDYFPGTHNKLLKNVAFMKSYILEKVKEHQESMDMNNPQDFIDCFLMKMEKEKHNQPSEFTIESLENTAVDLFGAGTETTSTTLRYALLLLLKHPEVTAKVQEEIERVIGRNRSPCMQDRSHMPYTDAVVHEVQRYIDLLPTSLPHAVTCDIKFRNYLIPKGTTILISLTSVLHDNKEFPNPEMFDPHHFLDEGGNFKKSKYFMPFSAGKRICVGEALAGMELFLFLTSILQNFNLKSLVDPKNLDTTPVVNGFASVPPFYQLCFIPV
Assay: Inhibition of recombinant CYP2C9
recorded endpoint: pIC50
One number for each entry, as −log10 of the molar value.

Would you kindly share the measured pIC50 for FC(F)(F)c1ccccc1-c1ccc2[nH]c(/C=C/C3CCCCC3)nc2c1 ?
5.46

* * *

Experiment: Half life in rat at 10 mg/kg
Type: ADME, organism-based
Set-up: dose 10 mg/kg
Details: in vivo
recorded endpoint: half-life (h)
Answers are plain numbers, in h.

Look up half-life: FC(F)(F)c1ccccc1-c1ccc2[nH]c(/C=C/C3CCCCC3)nc2c1
2.9

* * *

Provide the recorded inhibition for the entries that follow.
Biological target: Transient receptor potential M8 protein (Canis lupus familiaris) (UniProt Q1A7N1)
Sequence (Q1A7N1 1-1104): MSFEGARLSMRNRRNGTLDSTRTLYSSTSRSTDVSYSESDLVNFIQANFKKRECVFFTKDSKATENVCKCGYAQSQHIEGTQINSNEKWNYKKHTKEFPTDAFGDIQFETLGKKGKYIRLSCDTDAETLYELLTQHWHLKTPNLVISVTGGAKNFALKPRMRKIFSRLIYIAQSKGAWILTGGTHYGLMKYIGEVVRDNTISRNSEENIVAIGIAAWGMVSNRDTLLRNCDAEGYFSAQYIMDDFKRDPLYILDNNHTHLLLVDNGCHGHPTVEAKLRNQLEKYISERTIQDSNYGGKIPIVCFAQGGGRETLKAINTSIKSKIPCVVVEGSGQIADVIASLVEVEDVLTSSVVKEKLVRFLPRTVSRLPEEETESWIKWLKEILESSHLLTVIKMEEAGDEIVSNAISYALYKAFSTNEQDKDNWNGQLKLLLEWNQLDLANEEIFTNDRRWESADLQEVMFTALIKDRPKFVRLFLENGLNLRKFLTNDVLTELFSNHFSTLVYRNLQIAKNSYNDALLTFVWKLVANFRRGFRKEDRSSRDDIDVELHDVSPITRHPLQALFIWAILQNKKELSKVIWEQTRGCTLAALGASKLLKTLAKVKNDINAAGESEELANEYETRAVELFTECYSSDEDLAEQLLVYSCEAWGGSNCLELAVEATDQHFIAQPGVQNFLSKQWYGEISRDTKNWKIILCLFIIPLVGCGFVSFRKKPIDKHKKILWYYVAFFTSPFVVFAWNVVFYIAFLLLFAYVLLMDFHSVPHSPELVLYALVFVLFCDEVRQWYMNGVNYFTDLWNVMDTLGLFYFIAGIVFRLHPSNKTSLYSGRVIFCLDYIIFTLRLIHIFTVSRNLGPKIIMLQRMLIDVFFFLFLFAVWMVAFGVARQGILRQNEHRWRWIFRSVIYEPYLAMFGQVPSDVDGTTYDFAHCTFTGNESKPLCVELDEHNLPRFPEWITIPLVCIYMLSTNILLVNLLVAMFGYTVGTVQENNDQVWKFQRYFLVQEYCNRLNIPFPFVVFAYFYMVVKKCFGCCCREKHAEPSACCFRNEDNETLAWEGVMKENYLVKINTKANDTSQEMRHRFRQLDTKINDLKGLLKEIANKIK
Experiment: Antagonist activity at dog TRPM8 expressed in human HEK293 cells assessed as inhibition of icilin-induced calcium flux at 0.2 uM by FLIPR assay
Type: functional, cell-based
Numbers only, in %.

{"columns": ["smiles", "target or test system", "unit abbreviation", "inhibition"],
 "data": [
  ["CC(=O)N1CCC(/C=C/c2nc3cc(-c4ccccc4C(F)(F)F)ccc3[nH]2)CC1", "Transient receptor potential M8 protein (Canis lupus familiaris) (UniProt Q1A7N1)", "%", 1],
  ["CS(=O)(=O)N1CCC(/C=C/c2nc3cc(-c4ccccc4C(F)(F)F)ccc3[nH]2)CC1", "Transient receptor potential M8 protein (Canis lupus familiaris) (UniProt Q1A7N1)", "%", 14],
  ["FC(F)(F)c1ccccc1-c1ccc2[nH]c(/C=C/C3CCNCC3)nc2c1", "Transient receptor potential M8 protein (Canis lupus familiaris) (UniProt Q1A7N1)", "%", 16],
  ["O=S1(=O)CCC(/C=C/c2nc3cc(-c4ccccc4C(F)(F)F)ccc3[nH]2)CC1", "Transient receptor potential M8 protein (Canis lupus familiaris) (UniProt Q1A7N1)", "%", 63]
]}

// returns reported inhibition for input CN1CCC(/C=C/c2nc3cc(-c4ccccc4C(F)(F)F)ccc3[nH]2)CC1
1
